ASSAY EXPLANATION: Components of the Cytosolic LPS Sensing Pathway: Gene Identification via Genome-wide siRNA Screen;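 note: robust z of the log signal after scaling to non-targeting control siRNA wells of the plate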
PARTICULARS: RAW264.7 macrophages, IL-1a HTRF, actives lie on both sides, screened at 100 nM (by protocol), cells primed 5 h with Pam3CSK4 first
In all, about 53,000 sequences went through this assay and about 3,700 (7%) were called active. Shown is part of a subset that was picked to be rich in actives.
MEASUREMENT NAME: z-score
Write the value as a bare number.

- SEQUENCE CODE: "GGACGUAACAAAAUGUUCUTT against P2ry12"
  z-score: 0.578

Write down z-score measured for item CCUGUUUCGUAGAUUGUUUTT against Eftud2
-0.35

Query z-score for GAACCAGACUAAGAACUGUTT against Cox6b1
5.31

Write down z-score measured for item GGAGGAACAAUCAUCUAUATT against Ripk2
1.1

# return recorded z-score for entry GCAAGUGAUGAAUGCUUACTT against Ncln
-2.62

Quick one: give measured z-score for GGUUUGCUACACUUCAGAATT against Xpr1
0.101

# return recorded z-score for input GGGCCUGUACAUCUUCCAATT against Anpep
0.926

Ref: PubChem BioAssay AID1508600
